The entries below are paired with their reported log10 of Ki.
biological target: Serotonin 2 (5-HT2) receptor (Homo sapiens, UniProt P41595+P28223+P28335); assay: Binding affinity towards 5-HT2 receptor using [3H]ketanserin as radioligand; type: protein assay
// stored as log10 of Ki expressed in nM

// below: answered molecules
- substance smiles: "C/C=C/CN1CCC(COC/C=C/c2ccccc2)CC1"
  log10 of Ki: 2.81
- substance smiles: "C(=C\\c1ccccc1)/COCC1CCN(Cc2cccc3ccccc23)CC1"
  log10 of Ki: 2.45
- substance smiles: "FC(F)(F)c1ccc(/C=C/COCC2CCN(Cc3ccccc3)CC2)cc1"
  log10 of Ki: 2.51
- substance smiles: "Fc1ccc(/C=C/COCC2CCN(Cc3ccccc3)CC2)cc1"
  log10 of Ki: 1.49
- substance smiles: "c1ccc(CCCOCC2CCN(Cc3ccccc3)CC2)cc1"
  log10 of Ki: 2.26

Let us examine a further case.
I am curious: what log10 of Ki value has been reported for `C(=C\c1ccccc1)/COCC1CCN(CCc2ccccc2)CC1` ?
2.40

Attribution: ChEMBL document CHEMBL1127981
